System: Escherichia coli TOP10
EXPERIMENT: shrunken log2 fold change of peptide-encoding DNA abundance (4.5 h post-induction vs induction); higher = less antimicrobial activity (less host growth inhibition)
DETAILS: time post-induction: 4.5 h; library: site-saturation at positions 5, 18, 19, 20
Each entry below lists one item and its recorded shrunken log2 fold change value.

| SEQUENCE CHAIN | shrunken log2 fold change |
| --- | --- |
| RRIRSRPPRLPRPRPRPVFHPRP | -0.026 |
| RRIRQRPPRLPRPRPRPIDIPRP | 0.107 |
| RRIRWRPPRLPRPRPRPQWYPRP | -0.28 |
| RRIRERPPRLPRPRPRPDPHPRP | -0.011 |
| RRIRSRPPRLPRPRPRPIWQPRP | -0.0554 |
| RRIRWRPPRLPRPRPRPVVLPRP | -0.0385 |
| RRIRARPPRLPRPRPRPQWMPRP | 0.0371 |
| RRIRKRPPRLPRPRPRPTQFPRP | 1.1 |
| RRIRWRPPRLPRPRPRPLGFPRP | 0.239 |
| RRIRKRPPRLPRPRPRPNWTPRP | -0.129 |
| RRIRHRPPRLPRPRPRPTAVPRP | -0.295 |
| RRIRFRPPRLPRPRPRPYAKPRP | -0.552 |
| RRIRERPPRLPRPRPRPAFSPRP | 0.122 |

###

Test system: Escherichia coli TOP10
EXPERIMENT: shrunken log2 fold change of peptide-encoding DNA abundance (4.5 h post-induction vs induction); higher = less antimicrobial activity (less host growth inhibition)
DETAILS: time post-induction: 4.5 h; library: site-saturation at positions 5, 18, 19, 20
ENDPOINT: shrunken log2 fold change

| SEQUENCE CHAIN | ENDPOINT | MEASURED |
| --- | --- | --- |
| RRIRARPPRLPRPRPRPDCYPRP | shrunken log2 fold change | 0.283 |
| RRIRPRPPRLPRPRPRPWQRPRP | shrunken log2 fold change | -0.0107 |
| RRIRVRPPRLPRPRPRPLYDPRP | shrunken log2 fold change | -0.257 |
| RRIRWRPPRLPRPRPRPPKDPRP | shrunken log2 fold change | 0.0853 |
| RRIRMRPPRLPRPRPRPVDEPRP | shrunken log2 fold change | -0.00101 |

###

Test system: Escherichia coli TOP10
EXPERIMENT: shrunken log2 fold change of peptide-encoding DNA abundance (4.5 h post-induction vs induction); higher = less antimicrobial activity (less host growth inhibition)
DETAILS: time post-induction: 4.5 h; library: site-saturation at positions 5, 18, 19, 20
ENDPOINT: shrunken log2 fold change

| SEQUENCE CHAIN | MEASURED |
| --- | --- |
| RRIRQRPPRLPRPRPRPFGLPRP | -0.131 |
| RRIRQRPPRLPRPRPRPHIPPRP | -0.0245 |
| RRIRQRPPRLPRPRPRPQHDPRP | -0.477 |
| RRIRDRPPRLPRPRPRPRASPRP | 0.214 |
| RRIRGRPPRLPRPRPRPTRVPRP | 0.748 |
| RRIRWRPPRLPRPRPRPLAPPRP | 0.664 |
| RRIRCRPPRLPRPRPRPFFRPRP | -0.116 |
| RRIRDRPPRLPRPRPRPTCEPRP | 0.705 |
| RRIRARPPRLPRPRPRPYTEPRP | -0.583 |
| RRIRMRPPRLPRPRPRPRSSPRP | 0.923 |
| RRIRFRPPRLPRPRPRPLQWPRP | -0.0201 |
| RRIRLRPPRLPRPRPRPLDFPRP | -0.162 |
| RRIRIRPPRLPRPRPRPMSPPRP | 0.111 |
| RRIRQRPPRLPRPRPRPPCAPRP | 0.293 |
| RRIRTRPPRLPRPRPRPHIDPRP | -0.0151 |
| RRIRVRPPRLPRPRPRPCHHPRP | -0.00671 |
| RRIRLRPPRLPRPRPRPRCKPRP | 0.0707 |
| RRIRLRPPRLPRPRPRPYDCPRP | 0.0192 |
| RRIRLRPPRLPRPRPRPARQPRP | 0.281 |
| RRIRIRPPRLPRPRPRPAHMPRP | -0.303 |
| RRIRKRPPRLPRPRPRPYLVPRP | -0.634 |
| RRIRMRPPRLPRPRPRPHGMPRP | -0.0062 |
| RRIRRRPPRLPRPRPRPGWFPRP | 0.283 |
| RRIRHRPPRLPRPRPRPTVLPRP | -0.109 |
| RRIRQRPPRLPRPRPRPPHSPRP | 0.511 |
| RRIRYRPPRLPRPRPRPYYTPRP | -0.0958 |
| RRIRNRPPRLPRPRPRPWHPPRP | -0.277 |
| RRIRMRPPRLPRPRPRPNSRPRP | 0.169 |
| RRIRNRPPRLPRPRPRPYKDPRP | 0.0141 |
| RRIRHRPPRLPRPRPRPSWMPRP | -0.419 |
| RRIRKRPPRLPRPRPRPQVSPRP | -0.0595 |
| RRIRTRPPRLPRPRPRPEKPPRP | 0.0634 |
| RRIRNRPPRLPRPRPRPEVPPRP | 0.095 |
| RRIRTRPPRLPRPRPRPHLHPRP | -0.844 |

###

System: Escherichia coli TOP10
EXPERIMENT: shrunken log2 fold change of peptide-encoding DNA abundance (4.5 h post-induction vs induction); higher = less antimicrobial activity (less host growth inhibition)
DETAILS: time post-induction: 4.5 h; library: site-saturation at positions 5, 18, 19, 20

| SEQUENCE CHAIN | shrunken log2 fold change |
| --- | --- |
| RRIRFRPPRLPRPRPRPTTKPRP | -0.167 |
| RRIRARPPRLPRPRPRPKDPPRP | 0.211 |
| RRIRTRPPRLPRPRPRPYDVPRP | -0.153 |
| RRIRCRPPRLPRPRPRPDDVPRP | -0.0387 |

###

System: Escherichia coli TOP10
EXPERIMENT: shrunken log2 fold change of peptide-encoding DNA abundance (4.5 h post-induction vs induction); higher = less antimicrobial activity (less host growth inhibition)
DETAILS: time post-induction: 4.5 h; library: site-saturation at positions 5, 18, 19, 20
The following ranges of shrunken log2 fold change define the classes used here: c1 (below -0.2), c2 (-0.2 to below 0.08), c3 (0.08 or more)

| SEQUENCE CHAIN | DISCRETE LABEL |
| --- | --- |
| RRIRVRPPRLPRPRPRPPLSPRP | c3 |
| RRIRARPPRLPRPRPRPGAKPRP | c3 |
| RRIRWRPPRLPRPRPRPSNGPRP | c2 |
| RRIRQRPPRLPRPRPRPGLMPRP | c2 |
| RRIRDRPPRLPRPRPRPGHFPRP | c2 |
| RRIRDRPPRLPRPRPRPMHCPRP | c2 |
| RRIRFRPPRLPRPRPRPHYEPRP | c2 |
| RRIRTRPPRLPRPRPRPVYQPRP | c2 |
| RRIRERPPRLPRPRPRPTFKPRP | c1 |
| RRIRARPPRLPRPRPRPGIEPRP | c3 |
| RRIRHRPPRLPRPRPRPCKPPRP | c1 |
| RRIRLRPPRLPRPRPRPYNHPRP | c1 |
| RRIRKRPPRLPRPRPRPDMFPRP | c1 |
| RRIRQRPPRLPRPRPRPKYWPRP | c1 |
| RRIRHRPPRLPRPRPRPYIYPRP | c1 |
| RRIRFRPPRLPRPRPRPRRCPRP | c3 |
| RRIRCRPPRLPRPRPRPQAQPRP | c3 |
| RRIRPRPPRLPRPRPRPPYSPRP | c2 |
| RRIRLRPPRLPRPRPRPMNDPRP | c1 |
| RRIRMRPPRLPRPRPRPPVSPRP | c3 |
| RRIRVRPPRLPRPRPRPCRLPRP | c2 |
| RRIRLRPPRLPRPRPRPMNQPRP | c1 |
| RRIRGRPPRLPRPRPRPCDMPRP | c3 |
| RRIRQRPPRLPRPRPRPACDPRP | c2 |
| RRIRRRPPRLPRPRPRPNDKPRP | c2 |
| RRIRLRPPRLPRPRPRPAPWPRP | c3 |
| RRIRKRPPRLPRPRPRPMRRPRP | c3 |
| RRIRWRPPRLPRPRPRPMTNPRP | c2 |
| RRIRGRPPRLPRPRPRPHPKPRP | c3 |
| RRIRKRPPRLPRPRPRPMPCPRP | c2 |

###

Test system: Escherichia coli TOP10;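 note: peptides expressed intracellularly from a pBAD plasmid library in pooled LB shake-flask culture, induced with 0.3% L-arabinose, DNA abundance read by NGS, three biological replicates, DESeq2 with apeglm shrinkage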
EXPERIMENT: shrunken log2 fold change of peptide-encoding DNA abundance (4.5 h post-induction vs induction); higher = less antimicrobial activity (less host growth inhibition)
DETAILS: time post-induction: 4.5 h; library: site-saturation at positions 5, 18, 19, 20
Measured shrunken log2 fold change, listed per entry for reference.
ENDPOINT: shrunken log2 fold change

| SEQUENCE CHAIN | MEASURED |
| --- | --- |
| RRIRDRPPRLPRPRPRPGHRPRP | -0.0741 |
| RRIRTRPPRLPRPRPRPQPFPRP | 0.0325 |
| RRIRLRPPRLPRPRPRPNEMPRP | 0.0287 |
| RRIRDRPPRLPRPRPRPAITPRP | 0.284 |
| RRIRFRPPRLPRPRPRPACQPRP | -0.0497 |
| RRIRMRPPRLPRPRPRPIIAPRP | 0.0852 |
| RRIRDRPPRLPRPRPRPAGSPRP | 0.19 |
